Assay: Luciferase activity of purified RLuc mutants (light output integrated over 10 s, luminometer)
Assay type: biochemical
Settings: coelenterazine-n; relative to native enzyme
Listed here: items and their measured Activity (relative to RLuc) n.

molecule="A55T/C124A: RLuc mutant A55T/C124A (protein) MASKVYDPEQRKRMITGPQWWARCKQMNVLDSFINYYDSEKHAENAVIFLHGNATSSYLWRHVVPHIEPVARCIIPDLIGMGKSGKSGNGSYRLLDHYKYLTAWFELLNLPKKIIFVGHDWGAALAFHYSYEHQDKIKAIVHAESVVDVIESWDEWPDIEEDIALIKSEEGEKMVLENNFFVETMLPSKIMRKLEPEEFAAYLEPFKEKGEVRRPTLSWPREIPLVKGGKPDVVQIVRNYNAYLRASDDLPKMFIESDPGFFSNAIVEGAKKFPNTEFVKVKGLHFSQEDAPDEMGKYIKSFVERVLKNEQ" measurement_name="Activity (relative to RLuc) n" readout_value=1.4

For the next question, use this molecule.
Lookup: Tell me the measured Activity (relative to RLuc) n of C124A/F262L: RLuc mutant C124A/F262L (protein) MASKVYDPEQRKRMITGPQWWARCKQMNVLDSFINYYDSEKHAENAVIFLHGNAASSYLWRHVVPHIEPVARCIIPDLIGMGKSGKSGNGSYRLLDHYKYLTAWFELLNLPKKIIFVGHDWGAALAFHYSYEHQDKIKAIVHAESVVDVIESWDEWPDIEEDIALIKSEEGEKMVLENNFFVETMLPSKIMRKLEPEEFAAYLEPFKEKGEVRRPTLSWPREIPLVKGGKPDVVQIVRNYNAYLRASDDLPKMFIESDPGFLSNAIVEGAKKFPNTEFVKVKGLHFSQEDAPDEMGKYIKSFVERVLKNEQ , please.
Found: 0.06
